# method: Lipophilicity, log D of the compound at pH 7.4
# Format: physicochemical
# experimental conditions: buffer
quantity kind: logD

Item under review: CCOc1nc(NC(=O)C2(NC(=O)c3ccc4c(C5CCCC5)c(-c5cnccn5)n(C)c4c3)CCCC2)ccc1/C=C/C(=O)O . Reported logD?
4.1

Item under review: CCOc1nc(NC(=O)C(C)(C)NC(=O)c2ccc3c(C4CCCC4)c(-c4ncc(Cl)cn4)n(C)c3c2)ccc1/C=C/C(=O)O . Reported logD?
4

Item under review: CCOc1nc(NC(=O)C(C)(C)NC(=O)c2ccc3c(C4CCCC4)c(-c4ncc(Cl)cn4)n(C)c3c2)cnc1/C=C/C(=O)O . Reported logD?
3.3

Item under review: COc1nc(NC(=O)C2(NC(=O)c3ccc4c(C5CCCC5)c(-c5ccc(Cl)cn5)n(C)c4c3)CCC2)ccc1/C=C/C(=O)O . Reported logD?
4.6

Item under review: CCOc1nc(NC(=O)C2(NC(=O)c3ccc4c(C5CCCC5)c(-c5cnccn5)n(C)c4c3)CCC2)ccc1/C=C/C(=O)O . Reported logD?
3.6
